test system: biotinyl-Leu-oxazolone; assay: self-aminoacylation, catalytic enhancement (BLO) (fold over background); higher = more active; k-Seq, kA / k0A0; sequences stand for … in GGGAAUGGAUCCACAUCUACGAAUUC…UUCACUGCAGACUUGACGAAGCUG
Variants at the floor of the assay were thinned out.
Heads up, the class ranges for self-aminoacylation are low group: < 0.9; middle group: ≥ 0.9 and < 6; high group: ≥ 6

The following sequences have reported results that may help.
{"columns": ["sequence-content", "class-label"],
 "data": [
  ["AUUUCCCUGGUCAUCGAGUGA [Fam2.1 aminoacylation ribozyme variant]", "high group"],
  ["AAGUUUGCUAGUAGUCGCAGG [Fam3.1 aminoacylation ribozyme variant]", "middle group"],
  ["CAACACUUCAAGCAAGCGGUC [Fam1B.1 aminoacylation ribozyme variant]", "middle group"],
  ["CUACUUCAAACAAUCGCUCUC [Fam1A.1 aminoacylation ribozyme variant]", "low group"],
  ["AUUCACCUAUGACAUCGGGUG [Fam2.2 aminoacylation ribozyme variant]", "middle group"]
]}

Data request: # bin label for AUUACCCUUGCCAUCGAGUGA [Fam2.1 aminoacylation ribozyme variant]
Data returned: middle group

Data request: Just checking, what class would you give AUACACCUAGGUCAUCGCGUG [Fam2.2 aminoacylation ribozyme variant] here?
Data returned: high group

Data request: Classify this sequence: CCACACUUCAAGCACUCGGUC [Fam1B.1 aminoacylation ribozyme variant]
Data returned: low group

Data request: // bin(item) where item = CCACACUUCAAGCUAUCGGUG [Fam1B.1 aminoacylation ribozyme variant]
Data returned: high group

---

test system: biotinyl-Phe-oxazolone; assay: self-aminoacylation, catalytic enhancement (BFO) (fold over background); higher = more active; k-Seq, kA / k0A0; sequences stand for … in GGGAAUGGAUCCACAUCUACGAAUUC…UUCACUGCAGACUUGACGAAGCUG
This sample holds only a part of the variants without activity.
experimental-endpoint: self-aminoacylation
The response must contain the number and no unit.

Examples from the recorded data:
{"columns": ["sequence-content", "experimental-endpoint", "numeric-readout"],
 "data": [
  ["CCACCUUUCAAGCAAUCGGUC [Fam1B.1 aminoacylation ribozyme variant]", "self-aminoacylation", 2.62],
  ["AAAUUUGCUAAUAGUCGAAAG [Fam3.1 aminoacylation ribozyme variant]", "self-aminoacylation", 4.94],
  ["AUUUCCCUGGUCAUAGAGUGA [Fam2.1 aminoacylation ribozyme variant]", "self-aminoacylation", 61.5],
  ["AUUACCCGGGUUAUCGAGUGA [Fam2.1 aminoacylation ribozyme variant]", "self-aminoacylation", 94.5],
  ["AAGUCUGCUAAUAUUCGCAAG [Fam3.1 aminoacylation ribozyme variant]", "self-aminoacylation", 2.54],
  ["CUCCUUCAAACAAUCCGUCUG [Fam1A.1 aminoacylation ribozyme variant]", "self-aminoacylation", 1.24]
]}

Data request: For biotinyl-Phe-oxazolone, give the measured self-aminoacylation of the entry UUUAUCCUGGUCAUCGAGUGA [Fam2.1 aminoacylation ribozyme variant]
Data returned: 10.2

---

system: biotinyl-Met-oxazolone; assay: self-aminoacylation, catalytic enhancement (BMO) (fold over background); higher = more active; k-Seq, kA / k0A0; sequences stand for … in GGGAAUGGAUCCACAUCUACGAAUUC…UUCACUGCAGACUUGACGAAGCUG
Variants at the floor of the assay were thinned out.
experimental-endpoint: self-aminoacylation
Give a plain numeric answer without units written out.

Data request: Please give measured self-aminoacylation of the following entry: CUACUUCACACAAUUGGUCUG [Fam1A.1 aminoacylation ribozyme variant]
Data returned: 1
